# assayedTarget: partially purified telomerase from a nuclear extract of HEK293 cells (Homo sapiens)
# Construct: partially purified telomerase from a nuclear extract of HEK293 cells; endogenous in cells; host or cells: HEK293 cells, nuclear extract, partially purified
# testName: In vitro telomerase inhibition, membrane hybridization method (U.S. Pat. No. 5,760,062)
# Assay type: biochemical
# experimentalParameters: partially purified telomerase from nuclear extract of HEK293 cells
measuredQuantity: IC50 (µM)
Only the number, expressed in µM, is required.

molecule: O=C1NC(=O)C(=Cc2cc([N+](=O)[O-])ccc2N2CCOCC2)S1 [Compound 125]
units: µM
assayValue: 1.6

molecule: O=C1NC(=O)C(=Cc2cc([N+](=O)[O-])ccc2Sc2ccc(C(F)(F)F)cc2)S1 [Compound 115]
units: µM
assayValue: 2.7

molecule: CC(=O)c1ccc(Sc2ccc(C)cc2)c(C=C2SC(=O)NC2=O)c1 [Compound 97]
units: µM
assayValue: 5.6

molecule: O=C1NC(=O)C(=Cc2cc(Br)sc2Sc2ccc(Cl)cc2)S1 [Compound 43]
units: µM
assayValue: 2.6

molecule: Cc1ccc(Sc2ccc(-c3cccs3)cc2C=C2SC(=O)NC2=O)cc1 [Compound 92]
units: µM
assayValue: 5.6

molecule: Cc1ccc(Sc2ccc(C#N)cc2C=C2SC(=O)NC2=O)cc1 [Compound 94]
units: µM
assayValue: 7.8

molecule: O=C1NC(=O)C(=Cc2cc(-c3ccccc3)sc2Sc2ccc(Cl)cc2)S1 [Compound 44]
units: µM
assayValue: 1.9

molecule: O=C1NC(=O)C(=Cc2cc([N+](=O)[O-])ccc2Sc2ccc(Br)cc2)S1 [Compound 73]
units: µM
assayValue: 7

Turning to the following molecule.
Exam item: Which IC50 reading was recorded for the molecule O=C1NC(=O)C(=Cc2cc(Sc3ccc(Cl)cc3)cs2)S1 [Compound 60] ?
Marked response: 4.5

----------
# assayedTarget: partially purified telomerase from a nuclear extract of HEK293 cells (Homo sapiens, UniProt O14746)
# Construct: partially purified telomerase from a nuclear extract of HEK293 cells; endogenous in cells; host or cells: HEK293 cells, nuclear extract, partially purified
# Sequence (O14746 whole entry): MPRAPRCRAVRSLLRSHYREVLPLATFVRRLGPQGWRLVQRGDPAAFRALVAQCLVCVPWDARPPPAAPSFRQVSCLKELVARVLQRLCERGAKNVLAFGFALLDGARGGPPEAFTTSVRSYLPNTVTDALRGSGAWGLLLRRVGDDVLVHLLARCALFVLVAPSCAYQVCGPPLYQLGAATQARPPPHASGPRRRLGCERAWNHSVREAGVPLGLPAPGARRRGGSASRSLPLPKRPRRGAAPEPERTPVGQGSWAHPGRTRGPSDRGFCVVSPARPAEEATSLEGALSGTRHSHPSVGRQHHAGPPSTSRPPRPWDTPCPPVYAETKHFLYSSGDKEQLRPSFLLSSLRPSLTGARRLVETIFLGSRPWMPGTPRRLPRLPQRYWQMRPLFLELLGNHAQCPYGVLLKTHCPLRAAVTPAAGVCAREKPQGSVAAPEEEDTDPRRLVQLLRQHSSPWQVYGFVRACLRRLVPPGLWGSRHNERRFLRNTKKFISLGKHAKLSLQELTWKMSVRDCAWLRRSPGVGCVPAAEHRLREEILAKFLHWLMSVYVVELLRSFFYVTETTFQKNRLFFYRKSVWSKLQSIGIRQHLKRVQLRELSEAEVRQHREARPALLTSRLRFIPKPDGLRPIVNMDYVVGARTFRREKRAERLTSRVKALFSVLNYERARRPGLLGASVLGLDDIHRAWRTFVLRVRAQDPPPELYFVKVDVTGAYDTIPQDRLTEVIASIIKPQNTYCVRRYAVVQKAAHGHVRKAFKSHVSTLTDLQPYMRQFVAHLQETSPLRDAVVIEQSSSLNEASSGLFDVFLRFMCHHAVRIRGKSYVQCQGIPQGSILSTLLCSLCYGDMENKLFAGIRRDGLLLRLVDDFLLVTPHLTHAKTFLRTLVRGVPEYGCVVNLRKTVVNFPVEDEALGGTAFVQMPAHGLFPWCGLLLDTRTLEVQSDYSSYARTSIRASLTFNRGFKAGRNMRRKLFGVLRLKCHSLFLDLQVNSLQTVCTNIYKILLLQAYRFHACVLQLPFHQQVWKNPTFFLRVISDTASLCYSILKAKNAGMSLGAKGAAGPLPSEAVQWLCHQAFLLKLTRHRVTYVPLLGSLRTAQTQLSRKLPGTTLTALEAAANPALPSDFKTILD
# Sequence (O60832 whole entry partner): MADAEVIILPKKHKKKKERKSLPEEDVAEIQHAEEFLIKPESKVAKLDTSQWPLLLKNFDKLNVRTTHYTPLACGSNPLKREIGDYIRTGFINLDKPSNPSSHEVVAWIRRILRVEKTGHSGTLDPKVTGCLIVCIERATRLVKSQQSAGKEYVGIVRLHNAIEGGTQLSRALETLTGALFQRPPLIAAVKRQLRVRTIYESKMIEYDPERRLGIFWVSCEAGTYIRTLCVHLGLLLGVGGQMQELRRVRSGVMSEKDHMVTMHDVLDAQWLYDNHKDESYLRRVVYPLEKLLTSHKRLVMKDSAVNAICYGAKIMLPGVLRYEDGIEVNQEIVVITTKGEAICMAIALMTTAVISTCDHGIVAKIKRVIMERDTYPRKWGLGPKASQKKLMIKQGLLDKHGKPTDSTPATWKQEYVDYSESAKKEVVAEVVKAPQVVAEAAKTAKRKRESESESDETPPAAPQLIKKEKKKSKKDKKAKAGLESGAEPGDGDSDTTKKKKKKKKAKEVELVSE
# Sequence (Q9NPE3 whole entry partner): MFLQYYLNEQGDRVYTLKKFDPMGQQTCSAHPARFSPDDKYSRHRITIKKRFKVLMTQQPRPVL
# Sequence (Q9NX24 whole entry partner): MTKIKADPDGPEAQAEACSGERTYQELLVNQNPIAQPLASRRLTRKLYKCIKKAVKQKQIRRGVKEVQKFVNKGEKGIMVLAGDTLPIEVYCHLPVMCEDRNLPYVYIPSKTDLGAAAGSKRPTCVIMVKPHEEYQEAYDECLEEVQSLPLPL
# Sequence (Q9NY12 whole entry partner): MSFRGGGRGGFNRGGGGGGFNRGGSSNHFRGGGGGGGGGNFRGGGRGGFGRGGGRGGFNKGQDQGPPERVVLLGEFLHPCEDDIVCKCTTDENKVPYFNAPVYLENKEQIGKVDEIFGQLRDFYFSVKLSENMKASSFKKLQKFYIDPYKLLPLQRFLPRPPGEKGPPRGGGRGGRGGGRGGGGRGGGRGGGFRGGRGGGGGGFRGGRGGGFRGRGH
# testName: In vitro telomerase inhibition, membrane hybridization method (U.S. Pat. No. 5,760,062)
# Assay type: biochemical
# experimentalParameters: partially purified telomerase from nuclear extract of HEK293 cells
Catalogue of compounds with associated IC50
Kindly provide the numeric value in µM only, without the unit symbol.

Examples with answers:
compound: O=C1NC(=O)C(=Cc2ccc(N(c3ccc(CO)cc3)c3ccc(CO)cc3)cc2)S1
IC50 / µM: 4.4

compound: O=C1NC(=O)C(=Cc2ccc(Sc3ccc(Br)cc3)c([N+](=O)[O-])c2)S1
IC50 / µM: 5.5

compound: O=C1NC(=O)C(=Cc2cc([N+](=O)[O-])ccc2SC2CCCCC2)S1
IC50 / µM: 3.9

compound: COc1ccc(OCc2ccc(C)cc2)c(C=C2SC(=O)NC2=O)c1
IC50 / µM: 14

compound: O=C1NC(=O)C(=Cc2cc([N+](=O)[O-])ccc2Sc2ccc(Cl)cc2)S1
IC50 / µM: 1

compound: Cc1ccc(COc2ccc(Cl)cc2C=C2SC(=O)NC2=O)cc1
IC50 / µM: 5.3

compound: O=C1NC(=O)C(=Cc2cc(C(=O)O)sc2Sc2ccc(Cl)cc2)S1
IC50 / µM: 0.77

compound: COc1cc(O)ccc1C=C1SC(=O)NC1=O
IC50 / µM: 1.3

compound: Cc1ccc(Sc2ccc(C(F)(F)F)cc2C=C2SC(=O)NC2=O)cc1
IC50 / µM: 4.4

compound: Cc1ccc(S(=O)(=O)c2ccc([N+](=O)[O-])cc2C=C2SC(=O)NC2=O)cc1
IC50 / µM: 23

Exam item: Field request: IC50 | item: O=C1NC(=O)C(=Cc2cc(C(=O)c3ccc(Cl)cc3)c(Sc3ccc(Cl)cc3)s2)S1
Marked response: 6.2

Exam item: Then what about the compound Cc1c(C)c2c(c(C)c1O)CCC(C)(COc1ccc(CC3SC(=O)NC3=O)cc1)O2 (centres unmarked) [Troglitazone, troglitazone, reference compound] ?
Marked response: 16

Exam item: Another: CSc1ccc(Sc2ccc([N+](=O)[O-])cc2C=C2SC(=O)NC2=O)cc1
Marked response: 2.6

Exam item: What do you have for CCc1ccc([S+]([O-])c2ccc([N+](=O)[O-])cc2/C=C2\SC(=O)NC2=O)cc1 (centres unmarked) ?
Marked response: 9.1

Exam item: Could you do the same for O=C1NC(=O)/C(=C/c2cc(Br)c([S+]([O-])c3ccc(Cl)cc3)s2)S1 (centres unmarked) , please?
Marked response: 9.7

Exam item: Repeat with CN1CCN(C(=O)c2cc(C=C3SC(=O)NC3=O)c(Sc3ccc(Cl)cc3)s2)CC1
Marked response: 7.9

Exam item: Another compound: O=C1NC(=O)C(=Cc2cc(C(=O)N3CCOCC3)sc2Sc2ccc(Cl)cc2)S1
Marked response: 54

----------
# assayedTarget: telomerase in human renal carcinoma cell line ACHN (Homo sapiens)
# Construct: human renal carcinoma cell line ACHN for 3 days, and then a cell extract was prepared; endogenous in cells; host or cells: ACHN human renal carcinoma cells; CHAPS extract after 3 days of treatment
# testName: Telomerase activity in extract of agent-treated ACHN cells (TRAP assay)
# Type: cell-based
# experimentalParameters: contact 3 days, concentration 10 μM
Item-by-item account of Residual Enzyme Activity (%)
Write the answer as a number in %, unit excluded.

Recorded results for 2 molecules are shown here.
molecule: Cc1ccc(S(=O)(=O)c2ccc(C=C3SC(=O)NC3=O)cc2[N+](=O)[O-])cc1 [Compound 83]
Residual Enzyme Activity (%): 32
//
molecule: O=C1NC(=O)C(=Cc2cc([N+](=O)[O-])ccc2[S+]([O-])c2cccc(Cl)c2)S1 (centres unmarked) [Compound 134]
Residual Enzyme Activity (%): 4

Exam item: Which Residual Enzyme Activity (%) is reported for this molecule? O=C1NC(=O)C(=Cc2cc([N+](=O)[O-])ccc2[S+]([O-])c2ccncc2)S1 (centres unmarked) [Compound 120]
Marked response: 40

Exam item: Consider next the molecule Cc1ccc(S(=O)(=O)c2ccc([N+](=O)[O-])cc2C=C2SC(=O)NC2=O)cc1 [Compound 5] in the same way.
Marked response: 16

Exam item: Check Cc1ccc([S+]([O-])c2ccc([N+](=O)[O-])cc2C=C2SC(=O)NC2=O)cc1 (centres unmarked) [Compound 4] too.
Marked response: 16

----------
# assayedTarget: telomerase in human renal carcinoma cell line ACHN (Homo sapiens)
# Construct: human renal carcinoma cell line ACHN for 3 days, and then a cell extract was prepared; endogenous in cells; host or cells: ACHN human renal carcinoma cells; CHAPS extract after 3 days of treatment
# testName: Telomerase activity in extract of agent-treated ACHN cells (TRAP assay)
# Format: cell-based
# experimentalParameters: contact 3 days, concentration 30 μM, read-out: Residual Enzyme Activity (%)
# Protocol: That is, a cell extract was prepared using a buffer solution containing 0.5% CHAPS. Using the extract, TRAP (Telomeric Repeat Amplification Protocol) assay was carried out in vitro (TRAPEZE™ ELISA Telomerase Detection Kit, manufactured by Intergen). The ratio (%) of the enzyme activity in the extract from agent-treated cells to the enzyme activity in the extract from agent-untreated cells was calculated.
Measured remaining activity at 30 µM of individual entries
Field format: number, assumed %, no unit text.

Would you please look over these solved cases?
cpdSmiles: CCN(CC)C(=O)c1cc(C=C2SC(=O)NC2=O)c(Sc2ccc(Cl)cc2)s1
units: %
assayValue: 50

cpdSmiles: O=C1NC(=O)C(=Cc2cc(C(=O)N3CCOCC3)sc2Sc2ccc(Cl)cc2)S1
units: %
assayValue: 24

cpdSmiles: CC(=O)c1ccc(Sc2ccc(C)cc2)c(C=C2SC(=O)NC2=O)c1
units: %
assayValue: 41

cpdSmiles: Cc1ccc(Sc2ccc(-c3cccs3)cc2C=C2SC(=O)NC2=O)cc1
units: %
assayValue: 41

Exam item: Value lookup for remaining activity at 30 µM; key = CN1CCN(C(=O)c2cc(C=C3SC(=O)NC3=O)c(Sc3ccc(Cl)cc3)s2)CC1
Marked response: 26

----------
Overview of recorded Residual Enzyme Activity (%) for various compounds
# assayedTarget: telomerase in human renal carcinoma cell line ACHN (Homo sapiens, UniProt O14746)
# Construct: human renal carcinoma cell line ACHN for 3 days, and then a cell extract was prepared; endogenous in cells; host or cells: ACHN human renal carcinoma cells; CHAPS extract after 3 days of treatment
# testName: Telomerase activity in extract of agent-treated ACHN cells (TRAP assay)
# Assay type: cell-based
# experimentalParameters: contact 3 days, concentration 30 μM
I'd appreciate it if you wrote the number followed by its unit.

In the examples that follow, each entry is paired with its recorded Residual Enzyme Activity (%).
compound: O=C1NC(=O)C(=Cc2cc(C(=O)c3ccc(Cl)cc3)c(S(=O)(=O)c3ccc(Cl)cc3)s2)S1
assayedTarget: telomerase in human renal carcinoma cell line ACHN (Homo sapiens, UniProt O14746)
Residual Enzyme Activity (%): 0%

compound: Cc1ccc([S+]([O-])c2ccc(C=C3SC(=O)NC3=O)cc2Cl)cc1 (stereo not drawn)
assayedTarget: telomerase in human renal carcinoma cell line ACHN (Homo sapiens, UniProt O14746)
Residual Enzyme Activity (%): 26%

Exam item: For the compound O=C1NC(=S)SC1=Cc1cc([N+](=O)[O-])ccc1Sc1ccc(Cl)cc1 , what Residual Enzyme Activity (%) is on record?
Marked response: 39%

Exam item: Query Cc1ccc([S+]([O-])c2ccc(C=C3SC(=O)NC3=O)cc2Br)cc1 (stereo not drawn) next
Marked response: 36%

Exam item: Here is the next compound: Cc1ccc(Sc2ccc([N+](=O)[O-])cc2C=C2SC(=S)NC2=O)cc1
Marked response: 36%

Exam item: What about this compound? Cc1ccc([S+]([O-])c2ccc(C(F)(F)F)cc2C=C2SC(=O)NC2=O)cc1 (stereo not drawn)
Marked response: 37%
